# protein stability index per entry
B1: MNAT1 (parent)
chain: LEEALYEYQPLQIETYGPHVPELE

Variants of: B1
Assay: protein stability index of a GFP-peptide fusion (GPS, HEK-293T) (PSI 1-6); higher = more stable;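 note: lentivirally expressed fusions sorted by FACS into six bins by GFP to DsRed ratio, PSI derived from sequencing read proportions per bin multiplied by bin number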
Settings: c terminus: a fixed tail appended
Form: value (number only, do not type unit).

These recorded examples may help you get a feel for the data.
var: P21Y
number: 1.75
//
var: H19C
number: 3.3

Now let's try a different one.
Please report protein stability index for the following variant: E24P
1.93

Data origin, for the record: the supplement of paper PMC10567573
